Hey, just so you know, these numbers are from paper PMC9032693.

- Test system: HeLa
- assay_comment: Antiproliferative activity, resazurin assay, 72 h
- Assay type: cell-based, human
measured_quantity: log10 of GI50 (log10 of the value in nM)

- compound: "[Br-].[Br-].c1cc2c(N3CCCCC3)nc[n+](Cc3ccc(-c4ccc(C[n+]5cnc(N6CCCCC6)c6ccsc65)cc4)cc3)c2s1 [Fg-30]"
  number: 3.46
- compound: "[Br-].[Br-].c1cc2c(s1)c(N1CCCCCC1)nc[n+]2Cc1ccc(OCCOc2ccc(C[n+]3cnc(N4CCCCCC4)c4sccc43)cc2)cc1 [Ff-34]"
  number: 2.97
- compound: "[Br-].[Br-].c1cc2c(N3CCCCC3)nc[n+](Cc3ccc(OCCOc4ccc(C[n+]5cnc(N6CCCCC6)c6ccsc65)cc4)cc3)c2s1 [Ff-5]"
  number: 3.01
- compound: "[Br-].[Br-].c1cc2c(N3CCCC3)nc[n+](Cc3ccc(CCCCc4ccc(C[n+]5cnc(N6CCCC6)c6ccsc65)cc4)cc3)c2s1 [Ff-3]"
  number: 2.80
- compound: "[Br-].[Br-].c1cc2c(N3CCCC3)nc[n+](Cc3ccc(CCc4ccc(C[n+]5cnc(N6CCCC6)c6ccsc65)cc4)cc3)c2s1 [Fg-15]"
  number: 3.00
- compound: "CN(c1ccccc1)c1nc[n+](Cc2ccc(-c3ccc(C[n+]4cnc(N(C)c5ccccc5)c5sccc54)cc3)cc2)c2ccsc12 [Fp-1]"
  number: 3.22
- compound: "[Br-].[Br-].c1cc2c(N3CCCCCC3)nc[n+](Cc3ccc(CCCCc4ccc(C[n+]5cnc(N6CCCCCC6)c6ccsc65)cc4)cc3)c2s1 [Ff-35]"
  number: 2.48
- compound: "[Br-].[Br-].c1cc2c(s1)c(N1CCCC1)nc[n+]2Cc1ccc(CCCCc2ccc(C[n+]3cnc(N4CCCC4)c4sccc43)cc2)cc1 [Ff-7]"
  number: 2.94
- compound: "[Br-].[Br-].c1cc2c(N3CCCCCC3)nc[n+](Cc3ccc(OCCOc4ccc(C[n+]5cnc(N6CCCCCC6)c6ccsc65)cc4)cc3)c2s1 [Ff-36]"
  number: 3.48
- compound: "CN(c1ccc(Cl)cc1)c1nc[n+](Cc2ccc(-c3ccc(C[n+]4cnc(N(C)c5ccc(Cl)cc5)c5ccsc54)cc3)cc2)c2sccc12 [Fp-8]"
  number: 3.25
- compound: "[Br-].[Br-].c1cc2c(s1)c(N1CCCCCC1)cc[n+]2Cc1ccc(-c2ccc(C[n+]3ccc(N4CCCCCC4)c4sccc43)cc2)cc1 [Fg-10]"
  number: 3.20
- compound: "[Br-].[Br-].c1cc2c(s1)c(N1CCCCCC1)nc[n+]2Cc1ccc(CCc2ccc(C[n+]3cnc(N4CCCCCC4)c4sccc43)cc2)cc1 [Fa-23]"
  number: 3.07

* * *

- system_tested: CKα1 (Homo sapiens)
- Construct: an N-terminally His-tagged truncated form of CKα1 (Δ75–457) was cloned into a pET-28a vector; His tag (N); made in house; host or cells: E. coli BL21 (DE3) Star
- Sequence (P35790 75-457): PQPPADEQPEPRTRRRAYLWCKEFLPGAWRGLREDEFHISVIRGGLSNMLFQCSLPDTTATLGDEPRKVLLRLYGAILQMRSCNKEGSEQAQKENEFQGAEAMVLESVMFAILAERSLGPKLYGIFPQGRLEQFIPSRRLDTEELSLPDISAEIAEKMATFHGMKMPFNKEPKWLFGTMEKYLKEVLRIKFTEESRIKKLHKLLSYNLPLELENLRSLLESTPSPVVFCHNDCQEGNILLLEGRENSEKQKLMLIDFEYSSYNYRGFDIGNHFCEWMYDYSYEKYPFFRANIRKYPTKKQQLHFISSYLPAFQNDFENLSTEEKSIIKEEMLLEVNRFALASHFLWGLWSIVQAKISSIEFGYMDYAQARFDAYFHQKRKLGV
- assay_comment: Choline kinase assay ([methyl-14C]choline into PCho, purified enzyme)
- Assay type: biochemical
- assay_conditions: concentration required to inhibit CKα1 enzyme by 50%
Listing of recorded IC50 by entry.

- compound: "[Br-].[Br-].c1cc2c(s1)c(N1CCCC1)nc[n+]2Cc1ccc(CCCCc2ccc(C[n+]3cnc(N4CCCC4)c4sccc43)cc2)cc1"
  system_tested: "CKα1 (Homo sapiens)"
  unit_symbol: "µM"
  lt_gt_eq: "="
  IC50: 8.57
- compound: "CN(C)c1cc[n+](Cc2ccc(CCCCc3ccc(C[n+]4ccc(N(C)C)cc4)cc3)cc2)cc1 [MN-48b, reference compound]"
  system_tested: "CKα1 (Homo sapiens)"
  unit_symbol: "µM"
  lt_gt_eq: "="
  IC50: 0.78
- compound: "[Br-].[Br-].c1cc2c(s1)c(N1CCCC1)cc[n+]2Cc1ccc(-c2ccc(C[n+]3ccc(N4CCCC4)c4sccc43)cc2)cc1"
  system_tested: "CKα1 (Homo sapiens)"
  unit_symbol: "µM"
  lt_gt_eq: "≥"
  IC50: 5
